pIC50 values, listed per item
target: Kv4.3 (Homo sapiens); experiment: Blockade of cloned Kv4.3 channel in oocytes; settings: mean±s.e.m.
Sequence (Q9UK17 whole entry): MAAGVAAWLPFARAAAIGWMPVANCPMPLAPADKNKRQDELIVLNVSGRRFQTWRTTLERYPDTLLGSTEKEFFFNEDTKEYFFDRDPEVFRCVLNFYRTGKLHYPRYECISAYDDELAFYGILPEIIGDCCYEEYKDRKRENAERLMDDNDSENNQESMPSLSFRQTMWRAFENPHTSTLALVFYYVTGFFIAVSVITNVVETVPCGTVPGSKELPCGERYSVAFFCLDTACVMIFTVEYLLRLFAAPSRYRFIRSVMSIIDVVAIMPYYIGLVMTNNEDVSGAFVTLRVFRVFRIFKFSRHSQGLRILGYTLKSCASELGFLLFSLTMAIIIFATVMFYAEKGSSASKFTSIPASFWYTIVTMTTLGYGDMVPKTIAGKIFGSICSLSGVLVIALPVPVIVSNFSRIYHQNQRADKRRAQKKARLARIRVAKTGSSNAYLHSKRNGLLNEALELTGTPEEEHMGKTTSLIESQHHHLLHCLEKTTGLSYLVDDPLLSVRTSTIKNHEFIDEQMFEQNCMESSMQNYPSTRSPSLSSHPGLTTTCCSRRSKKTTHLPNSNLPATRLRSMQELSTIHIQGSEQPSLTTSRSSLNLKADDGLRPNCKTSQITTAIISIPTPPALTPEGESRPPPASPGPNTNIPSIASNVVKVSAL
// returns pIC50 (minus log10 of molar concentration), number only

Query block: Quick check: pIC50 of `O=C1N(c2ccccc2)c2ccccc2C1(Cc1ccncc1)Cc1ccncc1` ?
Result block: 4.07

Query block: `O=C1c2ccccc2C(Cc2ccncc2)(Cc2ccncc2)c2ccccc21` ?
Result block: 4.37

* * *

Target: eag1 (Rattus norvegicus, UniProt Q63472)
Sequence (Q63472 1-962): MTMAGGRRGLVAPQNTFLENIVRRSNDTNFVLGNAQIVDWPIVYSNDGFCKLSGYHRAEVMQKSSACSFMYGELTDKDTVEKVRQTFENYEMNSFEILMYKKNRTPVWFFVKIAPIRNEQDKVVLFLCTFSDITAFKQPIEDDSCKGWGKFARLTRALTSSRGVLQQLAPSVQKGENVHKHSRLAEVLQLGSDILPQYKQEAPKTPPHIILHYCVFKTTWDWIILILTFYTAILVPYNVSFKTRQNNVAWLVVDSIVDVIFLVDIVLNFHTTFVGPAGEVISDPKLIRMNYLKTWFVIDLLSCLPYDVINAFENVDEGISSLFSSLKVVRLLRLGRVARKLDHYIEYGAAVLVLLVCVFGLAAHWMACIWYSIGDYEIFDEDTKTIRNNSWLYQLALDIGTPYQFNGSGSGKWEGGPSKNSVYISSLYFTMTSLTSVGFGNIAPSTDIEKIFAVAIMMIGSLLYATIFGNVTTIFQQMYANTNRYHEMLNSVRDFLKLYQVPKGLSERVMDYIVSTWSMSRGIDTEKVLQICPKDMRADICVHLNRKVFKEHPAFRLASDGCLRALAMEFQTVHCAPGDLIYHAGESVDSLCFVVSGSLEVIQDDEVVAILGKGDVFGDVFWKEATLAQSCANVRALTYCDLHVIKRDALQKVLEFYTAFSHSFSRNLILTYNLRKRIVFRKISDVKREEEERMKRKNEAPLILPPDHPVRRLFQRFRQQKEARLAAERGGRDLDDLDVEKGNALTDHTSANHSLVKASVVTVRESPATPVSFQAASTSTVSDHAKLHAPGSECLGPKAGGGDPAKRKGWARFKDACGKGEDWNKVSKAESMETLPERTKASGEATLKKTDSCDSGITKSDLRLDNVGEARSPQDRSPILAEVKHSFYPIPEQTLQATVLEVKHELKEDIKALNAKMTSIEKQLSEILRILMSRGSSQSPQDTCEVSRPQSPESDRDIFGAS
Assay: Blockade of cloned eag1 channel in oocytes
Details: mean±s.e.m., blockade incomplete
Parameter: IC50. Scope: all listed entries.
Remember to quote the unit after the number.

1) O=C1N(c2ccccc2)c2ccccc2C1(Cc1ccncc1)Cc1ccncc1 [Linopirdine]    31 µM

Shift focus to the following entry.
Query block: Field: IC50 (eag1 (Rattus norvegicus, UniProt Q63472)). Entry: O=C1c2ccccc2C(Cc2ccncc2)(Cc2ccncc2)c2ccccc21 [XE991]
Result block: 49 µM

* * *

Target: elk1 (Rattus norvegicus, UniProt Q9QWS8)
Construct: expressed in transfected cells; host or cells: oocytes (Xenopus)
Sequence (Q9QWS8 1-1102): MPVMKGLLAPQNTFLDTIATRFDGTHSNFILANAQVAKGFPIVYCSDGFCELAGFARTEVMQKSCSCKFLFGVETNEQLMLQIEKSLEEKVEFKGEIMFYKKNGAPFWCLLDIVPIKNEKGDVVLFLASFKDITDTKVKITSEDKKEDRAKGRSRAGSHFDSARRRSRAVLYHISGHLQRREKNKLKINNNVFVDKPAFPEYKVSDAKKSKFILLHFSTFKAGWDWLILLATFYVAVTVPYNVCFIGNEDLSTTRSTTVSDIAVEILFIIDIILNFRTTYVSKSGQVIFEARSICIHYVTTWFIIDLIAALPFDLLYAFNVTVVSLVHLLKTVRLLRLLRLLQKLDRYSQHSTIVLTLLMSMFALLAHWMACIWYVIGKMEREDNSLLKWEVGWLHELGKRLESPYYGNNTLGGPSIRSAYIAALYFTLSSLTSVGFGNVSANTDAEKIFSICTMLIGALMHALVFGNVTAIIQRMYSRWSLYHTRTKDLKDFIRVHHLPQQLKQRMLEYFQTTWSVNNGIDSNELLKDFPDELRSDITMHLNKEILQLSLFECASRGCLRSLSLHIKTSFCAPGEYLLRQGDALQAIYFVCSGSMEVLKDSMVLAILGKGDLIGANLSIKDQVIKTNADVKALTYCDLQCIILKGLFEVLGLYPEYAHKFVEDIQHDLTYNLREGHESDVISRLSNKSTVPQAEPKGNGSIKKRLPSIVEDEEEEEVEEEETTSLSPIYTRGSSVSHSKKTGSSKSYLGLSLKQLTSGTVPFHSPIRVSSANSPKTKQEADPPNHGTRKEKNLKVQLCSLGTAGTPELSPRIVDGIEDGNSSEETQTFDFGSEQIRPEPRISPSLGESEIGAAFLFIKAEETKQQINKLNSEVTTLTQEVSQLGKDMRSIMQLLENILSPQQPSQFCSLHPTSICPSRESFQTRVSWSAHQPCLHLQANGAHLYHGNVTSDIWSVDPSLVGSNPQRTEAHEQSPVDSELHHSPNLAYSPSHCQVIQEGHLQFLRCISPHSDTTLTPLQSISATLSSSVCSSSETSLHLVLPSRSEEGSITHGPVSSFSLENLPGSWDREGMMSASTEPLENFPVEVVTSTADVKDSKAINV
Test: Blockade of cloned elk1 channel in oocytes
Format: cell-based
Conditions: step to −10 mV; voltage dependent
endpoint.name: pIC50
The scale used: pIC50 is minus the common logarithm of the concentration in molar units.

Query block: Would you kindly share the measured pIC50 for O=C1N(c2ccccc2)c2ccccc2C1(Cc1ccncc1)Cc1ccncc1 [Linopirdine] ?
Result block: 4.43

* * *

molecular target: KCNQ2 (Homo sapiens, UniProt O43526, DEL417-446); assay: Blockade of KCNQ2 channels expressed in Xenopus oocytes; conditions: homomultimeric KCNQ2, oocytes; Hill coefficient set to unity; read-out: KD for TEA block of KCNQ2 channels
endpoint.name: Kd
Express the reported value numerically, then name its unit.

Query block: If you can, please state the reported Kd value of CC[N+](CC)(CC)CC [TEA, tetraethylammonium] .
Result block: 160 µM

* * *

biological target: Kv1.2 (Homo sapiens); assay: Blockade of cloned Kv1.2 channel in oocytes; conditions: mean±s.e.m.
Sequence (P16389 whole entry): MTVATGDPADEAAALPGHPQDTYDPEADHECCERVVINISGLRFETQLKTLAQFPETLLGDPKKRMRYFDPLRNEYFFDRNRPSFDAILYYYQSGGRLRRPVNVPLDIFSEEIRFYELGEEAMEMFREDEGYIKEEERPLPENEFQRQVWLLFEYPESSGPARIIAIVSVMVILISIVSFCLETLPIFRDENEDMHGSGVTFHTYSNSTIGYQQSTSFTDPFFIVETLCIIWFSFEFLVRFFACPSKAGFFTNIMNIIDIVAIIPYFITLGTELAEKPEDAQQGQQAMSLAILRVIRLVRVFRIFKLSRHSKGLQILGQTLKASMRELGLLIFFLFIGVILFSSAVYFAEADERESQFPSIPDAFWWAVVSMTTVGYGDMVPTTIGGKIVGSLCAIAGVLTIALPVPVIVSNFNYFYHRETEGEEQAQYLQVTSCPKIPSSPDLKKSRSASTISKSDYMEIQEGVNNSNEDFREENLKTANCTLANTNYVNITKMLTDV
endpoint.name: pIC50
In textbook form, pIC50 equals minus log to base ten of the concentration in mol/L.

Query block: Please provide the recorded pIC50 for `O=C1N(c2ccccc2)c2ccccc2C1(Cc1ccncc1)Cc1ccncc1` , tested on Kv1.2 (Homo sapiens).
Result block: 4.17
